Reference for the values: the supplement of paper PMC12494721

# fold change of Tryptamine concentration values compiled below
Test system: Ruminococcus gnavus DSM 108212
PROCEDURE_SUMMARY: fold change of Tryptamine concentration vs plate DMSO controls (fold change (ratio)); higher = more amine produced, active = hit call of the paper (significant change in both replicates, either direction)
TEST_PARAMETERS: incubation time: 27 h, anaerobic, 37 °C
Counter-ions that a name gives are not always drawn.
Could you keep your reply to the number by itself?

Recorded results for 2 compounds are shown here.
CC(Cc1cccc(C(F)(F)F)c1)NCCOC(=O)c1ccccc1 (stereo not given) [Benfluorex] (20 µM) ... 0.786
C[N+]1(C)CCC(OC(=O)C(O)(c2ccccc2)C2CCCC2)C1 (stereo not given) [Glycopyrrolate bromide] (20 µM) ... 0.994

# input Param readout= fold change of Tryptamine concentration; system= Ruminococcus gnavus DSM 108212; entry= CCCCN(CCCC)CCCOC(=O)c1ccc(N)cc1 [Butacaine] (20 µM) ; returns value.
# output 0.951

# input Do the same for CC(C)(Sc1cc(C(C)(C)C)c(O)c(C(C)(C)C)c1)Sc1cc(C(C)(C)C)c(O)c(C(C)(C)C)c1 [Probucol] (20 µM) please
# output 1.01

# input Do the same for CNC(C)CCC=C(C)C (stereo not given) [Isometheptene mucate] (20 µM) please
# output 1.01

# input Do the same for Oc1ccc(OCc2ccccc2)cc1 [Monobenzone] (20 µM) please
# output 0.872

# input Do the same for CC(C)(C)NCC(O)COc1cccc2c1CC(O)C(O)C2 (stereo not given) [Nadolol] (20 µM) please
# output 1.02

# input Do the same for COc1cc(C(=O)N2CCOCC2)cc(OC)c1OC [Trimetozine] (20 µM) please
# output 1.04

# input Do the same for Cc1cccc(C)c1OCC(=O)N[C@@H](Cc1ccccc1)[C@@H](O)C[C@H](Cc1ccccc1)NC(=O)[C@H](C(C)C)N1CCCNC1=O [Lopinavir] (20 µM) please
# output 0.986

# input Do the same for CN/C(=N\CCSCc1nc[nH]c1C)NC#N [Cimetidine] (20 µM) please
# output 0.997

# input Do the same for Cc1c(NC(C)C)c(=O)n(-c2ccccc2)n1C [Isopyrin hydrochloride] (20 µM) please
# output 1.2

# input Do the same for NCCCC(O)(P(=O)(O)O)P(=O)(O)O [Alendronate sodium] (20 µM) please
# output 1.05

# input Do the same for C=CCOc1ccccc1OCC(O)CNC(C)C (stereo not given) [Oxprenolol hydrochloride] (20 µM) please
# output 1.05

# input Do the same for O=C1CCc2cc(OCCCCc3nnnn3C3CCCCC3)ccc2N1 [Cilostazol] (20 µM) please
# output 0.994

# input Do the same for C[C@]12CC[C@@H]3c4ccc(O)cc4C[C@@H](CCCCCCCCC[S+]([O-])CCCC(F)(F)C(F)(F)F)[C@H]3[C@@H]1CC[C@@H]2O (stereo not given in full) [Fulvestrant] (20 µM) please
# output 1.2
